# study.system: hMCHR (MCH receptor) (Homo sapiens)
# Construct: (or internally produced); host or cells: CHO (Chinese hamster ovary) cells, membrane preparation
# protocol.description: MCH Assay PCOP Protocol ([125I]-MCH SPA binding to hMCHR-CHO membranes);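 for Activity (Ki range): A 0.4–50 nM B 51–500 nM C 501–2500 nM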
# experimental.parameters: [125I]-MCH binding to hMCHR-CHO membranes; class symbols for ranges of Ki; read-out: Activity (Ki range)
pKi: −log10 of the molar value.
property.measured: pKi

Some solved cases for reference:
Cc1cccc(C(CCNCCc2c[nH]c3ccccc23)CNC(=O)Nc2cc(C(F)(F)F)cc(C(F)(F)F)c2)c1 (stereo not drawn)    5.60 to 6.30
O=C(NCC(CCNC1CCCC1)c1ccc(Cl)c(Cl)c1)Nc1cccc(C(F)(F)F)c1 (stereo not drawn)    6.30 to 7.29
O=C(NCC(CCNCCN1CCCC1)c1ccc(Cl)c(Cl)c1)c1cc(C(F)(F)F)cc(C(F)(F)F)c1 (stereo not drawn)    5.60 to 6.30
O=C(NCC(CCNCCCn1ccnc1)c1ccc(Cl)c(Cl)c1)c1cc(C(F)(F)F)cc(C(F)(F)F)c1 (stereo not drawn)    5.60 to 6.30
O=C(NCC(CCN1CCC(N2CCCCC2)CC1)c1ccc(F)c(F)c1)Nc1ccc(F)c(Cl)c1 (stereo not drawn)    5.60 to 6.30
COc1ccc(C(CCNCCc2c[nH]c3ccccc23)CNC(=O)Nc2cc(C(F)(F)F)cc(C(F)(F)F)c2)cc1 (stereo not drawn)    6.30 to 7.29
Cc1ccc(C(CCN2CCC(N)CC2)CNC(=O)Nc2cc(Cl)cc(Cl)c2)cc1 (stereo not drawn)    5.60 to 6.30
O=C(NCc1cc(C(F)(F)F)cc(C(F)(F)F)c1)C(CCNCCc1c[nH]c2cc(F)ccc12)c1ccc(Cl)c(Cl)c1 (stereo not drawn)    5.60 to 6.30

[Q] # lookup: pKi of CN1CCCC1CCNCCC(CNC(=O)c1cc(C(F)(F)F)cc(C(F)(F)F)c1)c1ccc(Cl)c(Cl)c1 (stereo not drawn)
[A] 5.60 to 6.30

[Q] # lookup: pKi of O=S(=O)(NCC(CCN1CCC(c2ccccc2)CC1)c1ccc(Cl)c(Cl)c1)c1ccc(Cl)c(Cl)c1 (stereo not drawn)
[A] 5.60 to 6.30

[Q] # lookup: pKi of CC(C)OCCCNCCC(CNC(=O)c1cc(C(F)(F)F)cc(C(F)(F)F)c1)c1ccc(Cl)c(Cl)c1 (stereo not drawn)
[A] 5.60 to 6.30

[Q] # lookup: pKi of N#Cc1cccc(NC(=O)NCC(CCN2CCC(N3CCCCC3)CC2)c2ccc(Cl)c(Cl)c2)c1 (stereo not drawn)
[A] 5.60 to 6.30

[Q] # lookup: pKi of O=C(NCC(CCN1CCNCC1)c1ccc(Cl)c(Cl)c1)Nc1cccc(C(F)(F)F)c1 (stereo not drawn)
[A] 5.60 to 6.30

[Q] # lookup: pKi of O=S(=O)(NCC(CCNCCc1c[nH]c2ccccc12)c1cccc(F)c1)c1ccc(Cl)c(Cl)c1 (stereo not drawn)
[A] 5.60 to 6.30

[Q] # lookup: pKi of O=C(NCC(CCN1CCCC1)c1ccc(Cl)cc1)Nc1cc(C(F)(F)F)cc(C(F)(F)F)c1 (stereo not drawn)
[A] 6.30 to 7.29

[Q] # lookup: pKi of COc1ccc2[nH]cc(CCNCCC(CNC(=O)c3cc(C(F)(F)F)cc(C(F)(F)F)c3)c3ccc(Cl)c(Cl)c3)c2c1 (stereo not drawn)
[A] 5.60 to 6.30

[Q] # lookup: pKi of CCNC(=O)NC1CCN(CCC(CNC(=O)Nc2cc(Cl)cc(Cl)c2)c2ccc(C)cc2)CC1 (stereo not drawn)
[A] 5.60 to 6.30

[Q] # lookup: pKi of O=C(NCC(CCNC1CCCC1)c1ccc(-c2cccs2)cc1)Nc1cc(Cl)cc(Cl)c1 (stereo not drawn)
[A] 6.30 to 7.29

[Q] # lookup: pKi of CN(C)CCCNCCC(CNC(=O)Nc1cc(Cl)cc(Cl)c1)c1ccc(-c2ccc(C(F)(F)F)cc2)cc1 (stereo not drawn)
[A] 5.60 to 6.30

[Q] # lookup: pKi of CCOC(=O)N1CCC(NCCC(CNC(=O)Nc2ccc(F)c(Cl)c2)c2ccc(Cl)c(Cl)c2)CC1 (stereo not drawn)
[A] 6.30 to 7.29

[Q] # lookup: pKi of O=C(NCC(CCN1CCC(N2CCCCC2)CC1)c1ccc(Cl)c(Cl)c1)Nc1cccc([N+](=O)[O-])c1 (stereo not drawn)
[A] 5.60 to 6.30

[Q] # lookup: pKi of COc1ccc(C(CCNCCCN(C)C)CNC(=O)Nc2cc(C(F)(F)F)cc(C(F)(F)F)c2)cc1 (stereo not drawn)
[A] 5.60 to 6.30

[Q] # lookup: pKi of O=C(NCC(CCNC1CCCC1)c1ccc(Cl)c(Cl)c1)Nc1cc(C(F)(F)F)cc(C(F)(F)F)c1 (stereo not drawn)
[A] 7.30 to 9.40

[Q] # lookup: pKi of COc1ccccc1-c1ccc(C(CCNC2CCCC2)CNC(=O)Nc2cc(Cl)cc(Cl)c2)cc1 (stereo not drawn)
[A] 6.30 to 7.29

====

# study.system: hMCHR (MCH receptor) (Homo sapiens)
# Construct: (or internally produced); host or cells: CHO (Chinese hamster ovary) cells, membrane preparation
# protocol.description: MCH Assay PCOP Protocol ([125I]-MCH SPA binding to hMCHR-CHO membranes)
# experimental.parameters: [125I]-MCH 0.5 nM, hMCHR-CHO membranes; read-out: Activity (ranges of Ki values)
pKi: −log10 of the molar value.
property.measured: pKi

Some solved cases for reference:
CC(CCNC1CCCC1)(CNC(=O)Nc1ccc(F)c([N+](=O)[O-])c1)c1ccc(Cl)c(Cl)c1 (stereo not shown)    5.60 to 6.30
N#Cc1cccc(-c2ccc(C(CCNC3CC3)CNC(=O)Nc3ccc(Cl)cc3)cc2)c1 (stereo not shown)    7.30 to 9.40
CN(C)CCCNCCC(CNC(=O)Nc1cc(Cl)cc(Cl)c1)c1cccc(-c2cc(C(F)(F)F)cc(C(F)(F)F)c2)c1 (stereo not shown)    5.60 to 6.30

[Q] Write down the reported pKi of Cc1ccc(C(CCNCCCN(C)C)CNC(=O)Nc2cc(Cl)cc(Cl)c2)cc1C (stereo not shown) , test system: hMCHR (MCH receptor) (Homo sapiens).
[A] 5.60 to 6.30

====

# study.system: hMCHR (MCH receptor) (Homo sapiens, UniProt Q99705)
# Construct: (or internally produced); host or cells: CHO (Chinese hamster ovary) cells, membrane preparation
# Sequence (Q99705 whole entry): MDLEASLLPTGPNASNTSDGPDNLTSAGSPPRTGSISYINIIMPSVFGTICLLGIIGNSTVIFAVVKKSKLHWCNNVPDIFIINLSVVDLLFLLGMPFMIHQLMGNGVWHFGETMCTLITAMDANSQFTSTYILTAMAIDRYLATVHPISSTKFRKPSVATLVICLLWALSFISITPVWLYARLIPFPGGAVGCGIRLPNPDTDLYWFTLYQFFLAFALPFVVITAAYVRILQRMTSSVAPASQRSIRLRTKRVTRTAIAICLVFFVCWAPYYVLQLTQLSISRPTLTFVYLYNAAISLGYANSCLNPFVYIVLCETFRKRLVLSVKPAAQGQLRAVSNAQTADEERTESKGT
# protocol.description: MCH Assay PCOP Protocol ([125I]-MCH SPA binding to hMCHR-CHO membranes)
# experimental.parameters: [125I]-MCH 0.5 nM, hMCHR-CHO membranes; read-out: Activity (ranges of Ki values)
pKi: −log10 of the molar value.
pKi: recorded values

Some solved cases for reference:
O=C(NCC(CCN1CCC(NC(=O)C2CCC2)C1)c1ccc(Cl)c(Cl)c1)Nc1cc(Cl)cc(Cl)c1 (stereo not drawn)    6.30 to 7.29
CN(C)CCC(CNC(=O)c1ccc(F)c(F)c1)c1ccc(-c2cccc(C#N)c2)cc1 (stereo not drawn)    6.30 to 7.29
CC(=O)NC1CCN(CCC(CNC(=O)Nc2cc(Cl)cc(Cl)c2)c2ccc(Cl)c(Cl)c2)CC1 (stereo not drawn)    6.30 to 7.29
O=C(NCC(CCNC1CCCC1)c1ccc(Cl)c(Cl)c1)Nc1ccc(F)c(F)c1 (stereo not drawn)    5.60 to 6.30
O=C(NCC(CCNC1CCCC1)c1cccc(-c2ccc3c(c2)OCO3)c1)Nc1cc(Cl)cc(Cl)c1 (stereo not drawn)    6.30 to 7.29

[Q] # lookup: pKi of CN(C)CCCNCCC(CNC(=O)Nc1cc(Cl)cc(Cl)c1)c1ccc2c(c1)OCO2 (stereo not drawn)
[A] 5.60 to 6.30

[Q] # lookup: pKi of O=C(NCC(CCNC1CCCC1)c1ccc(Cl)c(Cl)c1)Nc1cccc(Br)c1 (stereo not drawn)
[A] 6.30 to 7.29

[Q] # lookup: pKi of N#Cc1cccc(-c2ccc(C(CCNC3CC3)CNC(=O)Nc3cccc(F)c3)cc2)c1 (stereo not drawn)
[A] 7.30 to 9.40

[Q] # lookup: pKi of Cc1ccc(C(CCNC2CCNC2)CNC(=O)Nc2ccc(Cl)c(Cl)c2)cc1 (stereo not drawn)
[A] 5.60 to 6.30

====

# study.system: hMCHR (MCH receptor) (Homo sapiens)
# Construct: (or internally produced); host or cells: CHO (Chinese hamster ovary) cells, membrane preparation
# protocol.description: MCH Assay PCOP Protocol ([125I]-MCH SPA binding to hMCHR-CHO membranes)
# experimental.parameters: [125I]-MCH 0.5 nM, hMCHR-CHO membranes; read-out: Activity (ranges of Ki values)
Ki: recorded values

Some solved cases for reference:
O=C(NCC(CCNC1CCCC1)c1ccc2c(c1)OCO2)Nc1cc(Cl)cc(Cl)c1 (stereo not shown)    51 to 500 nM
O=C(NCC(CCNC1CCCC1)c1ccc(Cl)c(Cl)c1)Nc1cccc(Cl)c1 (stereo not shown)    51 to 500 nM
O=C(NCC(CCN1CCC(NC(=O)c2ccno2)CC1)c1ccc(Cl)cc1)Nc1cc(Cl)cc(Cl)c1 (stereo not shown)    501 to 2500 nM

[Q] Write down the reported Ki of COc1cscc1C(=O)NC1CCN(CCC(CNC(=O)Nc2cc(Cl)cc(Cl)c2)c2ccc(C)cc2)CC1 (stereo not shown) , test system: hMCHR (MCH receptor) (Homo sapiens).
[A] 501 to 2500 nM

[Q] Write down the reported Ki of O=C(NCC(CCNC1CCCC1)c1ccc(-c2ccc[n+]([O-])c2)cc1)Nc1cc(Cl)cc(Cl)c1 (stereo not shown) , test system: hMCHR (MCH receptor) (Homo sapiens).
[A] 0.4 to 50 nM

[Q] Write down the reported Ki of O=C(NCC(CCNCCc1ccc(O)cc1)c1ccc(Cl)c(Cl)c1)Nc1ccc(F)c(F)c1 (stereo not shown) , test system: hMCHR (MCH receptor) (Homo sapiens).
[A] 501 to 2500 nM

[Q] Write down the reported Ki of CNCCC(CNC(=O)Nc1ccc(F)c(Cl)c1)c1ccc(-c2cccc(C#N)c2)cc1 (stereo not shown) , test system: hMCHR (MCH receptor) (Homo sapiens).
[A] 0.4 to 50 nM

[Q] Write down the reported Ki of N#Cc1cccc(-c2ccc(C(CCNC3CC3)CNC(=O)Nc3ccc(F)c(Cl)c3)cc2)c1 (stereo not shown) , test system: hMCHR (MCH receptor) (Homo sapiens).
[A] 0.4 to 50 nM

[Q] Write down the reported Ki of CCOC(=O)N1CCC(NCCC(CNC(=O)Nc2cc(Cl)cc(Cl)c2)c2ccc(C)cc2)CC1 (stereo not shown) , test system: hMCHR (MCH receptor) (Homo sapiens).
[A] 51 to 500 nM

[Q] Write down the reported Ki of CS(=O)(=O)NC1CCN(CCC(CNC(=O)Nc2cc(Cl)cc(Cl)c2)c2ccc(Cl)c(Cl)c2)C1 (stereo not shown) , test system: hMCHR (MCH receptor) (Homo sapiens).
[A] 501 to 2500 nM

[Q] Write down the reported Ki of CN(C)CCCNCCC(CNC(=O)Nc1cc(Cl)cc(Cl)c1)c1ccc(-c2ccc(F)c(F)c2)cc1 (stereo not shown) , test system: hMCHR (MCH receptor) (Homo sapiens).
[A] 0.4 to 50 nM

[Q] Write down the reported Ki of COc1cc(CNCCC(CNC(=O)Nc2ccc(F)c(F)c2)c2ccc(Cl)c(Cl)c2)cc(OC)c1OC (stereo not shown) , test system: hMCHR (MCH receptor) (Homo sapiens).
[A] 51 to 500 nM

[Q] Write down the reported Ki of O=C(NCC(CCNC1CCCC1)c1cccc(-c2cccc([N+](=O)[O-])c2)c1)Nc1cc(Cl)cc(Cl)c1 (stereo not shown) , test system: hMCHR (MCH receptor) (Homo sapiens).
[A] 51 to 500 nM

[Q] Write down the reported Ki of CCNC(=O)N1CCC(NCCC(CNC(=O)Nc2cc(Cl)cc(Cl)c2)c2ccc(Cl)c(Cl)c2)C1 (stereo not shown) , test system: hMCHR (MCH receptor) (Homo sapiens).
[A] 51 to 500 nM

[Q] Write down the reported Ki of CN(C)CCCNCCC(CNC(=O)Nc1cc(Cl)cc(Cl)c1)c1ccc(-c2cccnc2)cc1 (stereo not shown) , test system: hMCHR (MCH receptor) (Homo sapiens).
[A] 0.4 to 50 nM

[Q] Write down the reported Ki of Cc1ccc(C(CCN2CCC(NC(=O)c3ccno3)CC2)CNC(=O)Nc2cc(Cl)cc(Cl)c2)cc1 (stereo not shown) , test system: hMCHR (MCH receptor) (Homo sapiens).
[A] 501 to 2500 nM

[Q] Write down the reported Ki of O=C(NCC(CCNC1CCCC1)c1cccs1)Nc1ccc(Cl)c([N+](=O)[O-])c1 (stereo not shown) , test system: hMCHR (MCH receptor) (Homo sapiens).
[A] 51 to 500 nM

[Q] Write down the reported Ki of N#Cc1cccc(-c2ccc(C(CCN3CCOCC3)CNC(=O)Nc3cc(Cl)cc(Cl)c3)cc2)c1 (stereo not shown) , test system: hMCHR (MCH receptor) (Homo sapiens).
[A] 0.4 to 50 nM

[Q] Write down the reported Ki of O=C(NCC(CCNC1CCCC1)c1cccc(-c2ccc(F)cc2)c1)Nc1cc(Cl)cc(Cl)c1 (stereo not shown) , test system: hMCHR (MCH receptor) (Homo sapiens).
[A] 51 to 500 nM

[Q] Write down the reported Ki of N#Cc1cccc(-c2ccc(C(CCNC3CCCC3)CNC(=O)c3cc(Cl)cc(Cl)c3)cc2)c1 (stereo not shown) , test system: hMCHR (MCH receptor) (Homo sapiens).
[A] 51 to 500 nM

[Q] Write down the reported Ki of O=C(NCC(CCNCCc1ccc(O)cc1)c1ccc(Cl)c(Cl)c1)Nc1ccc(F)c([N+](=O)[O-])c1 (stereo not shown) , test system: hMCHR (MCH receptor) (Homo sapiens).
[A] 51 to 500 nM
